Form field: self-cleavage (one value per entry).
B1: HDV Ribozyme (parent)
chain: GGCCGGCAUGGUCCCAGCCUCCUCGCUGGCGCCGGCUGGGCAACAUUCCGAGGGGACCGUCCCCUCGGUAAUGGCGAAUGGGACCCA

variants of: B1; experiment: self-cleavage, relative activity (ratio to wild type); higher = more cleavage; co-transcriptional
metric-name: self-cleavage

mutation_label="C7U G40C" metric_name=self-cleavage experimental_value=0.166
mutation_label=G17A metric_name=self-cleavage experimental_value=0.718
mutation_label="C19A G38U" metric_name=self-cleavage experimental_value=0.0346
mutation_label="G5U C19A" metric_name=self-cleavage experimental_value=0.256
mutation_label="C61A G68A" metric_name=self-cleavage experimental_value=1.08
mutation_label="C19U G38U" metric_name=self-cleavage experimental_value=0
mutation_label="U27A G53A" metric_name=self-cleavage experimental_value=0.646
mutation_label="G35C G81C" metric_name=self-cleavage experimental_value=0.19
mutation_label="U9C A43C" metric_name=self-cleavage experimental_value=0.378
mutation_label="C49U A51U" metric_name=self-cleavage experimental_value=0.867
mutation_label="A16U G40U" metric_name=self-cleavage experimental_value=0.964
mutation_label="C14A C21A" metric_name=self-cleavage experimental_value=0.0652
mutation_label="C48A G76A" metric_name=self-cleavage experimental_value=0.727
mutation_label="G50U A70C" metric_name=self-cleavage experimental_value=0.795
mutation_label="G50U C66A" metric_name=self-cleavage experimental_value=0.901
mutation_label="C24U C62G" metric_name=self-cleavage experimental_value=0.341
mutation_label="G38A C75G" metric_name=self-cleavage experimental_value=0.0302
mutation_label="G5U G82C" metric_name=self-cleavage experimental_value=0
mutation_label="G31C U79G" metric_name=self-cleavage experimental_value=0
mutation_label="G76U C86A" metric_name=self-cleavage experimental_value=0.615
mutation_label="A56G A78G" metric_name=self-cleavage experimental_value=0.615
mutation_label="C14U U79A" metric_name=self-cleavage experimental_value=1.02
mutation_label="G5A U69A" metric_name=self-cleavage experimental_value=0.0519
mutation_label="A8G U12C" metric_name=self-cleavage experimental_value=0.151
mutation_label="U12C A87G" metric_name=self-cleavage experimental_value=0.369
mutation_label="C36A C61A" metric_name=self-cleavage experimental_value=0.0536
mutation_label="C32G U46A" metric_name=self-cleavage experimental_value=0.0332
mutation_label="C21G G81A" metric_name=self-cleavage experimental_value=0.0604
mutation_label="G25A G74A" metric_name=self-cleavage experimental_value=0.0767
mutation_label="G74A G81C" metric_name=self-cleavage experimental_value=0.218
mutation_label="C64U G76A" metric_name=self-cleavage experimental_value=1.01
